- Tested on: Pons
- assayProtocol: Drug uptake in anesthetized cynomolgus monkey brain pons after 35 mins postinjection
- Format: ADME, organism-based, Macaca fascicularis
- protocolConditions: in vivo
// reported Drug uptake for each item listed

| compound | measuredOn | Drug uptake |
| --- | --- | --- |
| O=C(OCC[18F])C1C2CCC(CC1c1cccc(/C=C\Br)c1)N2 (stereo not given) | Pons | 4.22 |
| O=C(OCCC[18F])C1C2CCC(CC1c1cccc(/C=C\I)c1)N2 (stereo not given) | Pons | 4.25 |
| O=C(OCCC[18F])C1C2CCC(CC1c1cccc(/C=C\Br)c1)N2 (stereo not given) | Pons | 5.08 |
| O=C(OCC[18F])C1C2CCC(CC1c1ccc(/C=C\I)cc1)N2 (stereo not given) | Pons | 2.74 |
| O=C(OCC[18F])C1C2CCC(CC1c1cccc(/C=C\I)c1)N2 (stereo not given) | Pons | 3.29 |

====

- Tested on: Pons
- assayProtocol: Drug uptake in anesthetized cynomolgus monkey brain pons after 225 mins postinjection
- Assay type: ADME, organism-based, Macaca fascicularis
- protocolConditions: in vivo, 3.75 h
Cut-off 3 on Drug uptake: below means 1, at or above means -1.

| compound | measuredOn | answerLabel |
| --- | --- | --- |
| O=C(OCCC[18F])C1C2CCC(CC1c1cccc(/C=C\I)c1)N2 (stereo not given) | Pons | -1 |
| O=C(OCC[18F])C1C2CCC(CC1c1cccc(/C=C\Br)c1)N2 (stereo not given) | Pons | 1 |
| O=C(OCCC[18F])C1C2CCC(CC1c1cccc(/C=C\Br)c1)N2 (stereo not given) | Pons | -1 |
| O=C(OCC[18F])C1C2CCC(CC1c1cccc(/C=C\I)c1)N2 (stereo not given) | Pons | 1 |
| O=C(OCC[18F])C1C2CCC(CC1c1ccc(/C=C\I)cc1)N2 (stereo not given) | Pons | -1 |

====

- Test system: Thalamus
- assayProtocol: Drug uptake in anesthetized cynomolgus monkey brain thalamus after 145 mins postinjection
- Format: ADME, organism-based, Macaca fascicularis
- Design: unit not given here
- protocolConditions: in vivo
I would appreciate it if you labelled entries criterion met when Drug uptake is 4 or higher, otherwise criterion not met.

| compound | answerLabel |
| --- | --- |
| O=C(OCC[18F])C1C2CCC(CC1c1cccc(/C=C\Br)c1)N2 (stereo not given) | criterion not met |
| O=C(OCC[18F])C1C2CCC(CC1c1cccc(/C=C\I)c1)N2 (stereo not given) | criterion not met |
| O=C(OCCC[18F])C1C2CCC(CC1c1cccc(/C=C\Br)c1)N2 (stereo not given) | criterion met |

====

- Test system: Caudate
- assayProtocol: Drug uptake in anesthetized cynomolgus monkey brain caudate after 27.5 mins postinjection
- Type: ADME, organism-based, Macaca fascicularis, Caudate nucleus
- protocolConditions: in vivo
// reported Drug uptake for each item listed

| compound | Drug uptake |
| --- | --- |
| O=C(OCCC[18F])C1C2CCC(CC1c1cccc(/C=C\I)c1)N2 (stereo not given) | 3.68 |
| O=C(OCC[18F])C1C2CCC(CC1c1ccc(/C=C\I)cc1)N2 (stereo not given) | 2.17 |
| O=C(OCC[18F])C1C2CCC(CC1c1cccc(/C=C\Br)c1)N2 (stereo not given) | 3.3 |
| O=C(OCCC[18F])C1C2CCC(CC1c1cccc(/C=C\Br)c1)N2 (stereo not given) | 4.94 |
| O=C(OCC[18F])C1C2CCC(CC1c1cccc(/C=C\I)c1)N2 (stereo not given) | 3.39 |

====

// reported Ratio for each item listed
- assayProtocol: Ratio of drug uptake in putamen to cerebellum in anesthetized cynomolgus monkey after 9.5 mins postinjection
- Format: ADME, organism-based, Macaca fascicularis
- protocolConditions: in vivo

| compound | Ratio |
| --- | --- |
| O=C(OCC[18F])C1C2CCC(CC1c1cccc(/C=C\I)c1)N2 (centres undefined) | 0.9 |
| O=C(OCCC[18F])C1C2CCC(CC1c1cccc(/C=C\Br)c1)N2 (centres undefined) | 0.9 |
| O=C(OCCC[18F])C1C2CCC(CC1c1cccc(/C=C\I)c1)N2 (centres undefined) | 0.9 |
| O=C(OCC[18F])C1C2CCC(CC1c1cccc(/C=C\Br)c1)N2 (centres undefined) | 1.1 |

====

- Test system: Putamen
- assayProtocol: Drug uptake in anesthetized cynomolgus monkey brain putamen after 65 mins postinjection
- Assay type: ADME, organism-based, Macaca fascicularis
- Design: unit not given here
- protocolConditions: in vivo

| molecule | Drug uptake |
| --- | --- |
| O=C(OCC[18F])C1C2CCC(CC1c1cccc(/C=C\Br)c1)N2 (centres undefined) | 5.1 |
| O=C(OCC[18F])C1C2CCC(CC1c1cccc(/C=C\I)c1)N2 (centres undefined) | 4.36 |
| O=C(OCCC[18F])C1C2CCC(CC1c1cccc(/C=C\Br)c1)N2 (centres undefined) | 5.78 |
| O=C(OCCC[18F])C1C2CCC(CC1c1cccc(/C=C\I)c1)N2 (centres undefined) | 4.95 |

====

- Tested on: Caudate
- assayProtocol: Drug uptake in anesthetized cynomolgus monkey brain caudate after 215 mins postinjection
- Format: ADME, organism-based, Macaca fascicularis, Caudate nucleus
- protocolConditions: in vivo
observable: Drug uptake

| molecule | measuredOn | observable | val |
| --- | --- | --- | --- |
| O=C(OCCC[18F])C1C2CCC(CC1c1cccc(/C=C\I)c1)N2 (stereo not given) | Caudate | Drug uptake | 2.54 |
| O=C(OCC[18F])C1C2CCC(CC1c1ccc(/C=C\I)cc1)N2 (stereo not given) | Caudate | Drug uptake | 2.81 |
| O=C(OCCC[18F])C1C2CCC(CC1c1cccc(/C=C\Br)c1)N2 (stereo not given) | Caudate | Drug uptake | 3.62 |
| O=C(OCC[18F])C1C2CCC(CC1c1cccc(/C=C\I)c1)N2 (stereo not given) | Caudate | Drug uptake | 2.09 |
| O=C(OCC[18F])C1C2CCC(CC1c1cccc(/C=C\Br)c1)N2 (stereo not given) | Caudate | Drug uptake | 2.85 |

====

- Tested on: Putamen
- assayProtocol: Drug uptake in anesthetized cynomolgus monkey brain putamen after 115 mins postinjection
- Assay type: ADME, organism-based, Macaca fascicularis
- Design: unit not given here
- protocolConditions: in vivo
I would appreciate it if you labelled entries yes (1) when Drug uptake is 4 or higher, otherwise no (0).

| molecule | measuredOn | answerLabel |
| --- | --- | --- |
| O=C(OCCC[18F])C1C2CCC(CC1c1cccc(/C=C\Br)c1)N2 (stereo not given) | Putamen | yes (1) |
| O=C(OCC[18F])C1C2CCC(CC1c1ccc(/C=C\I)cc1)N2 (stereo not given) | Putamen | yes (1) |
| O=C(OCC[18F])C1C2CCC(CC1c1cccc(/C=C\Br)c1)N2 (stereo not given) | Putamen | yes (1) |
| O=C(OCC[18F])C1C2CCC(CC1c1cccc(/C=C\I)c1)N2 (stereo not given) | Putamen | no (0) |
| O=C(OCCC[18F])C1C2CCC(CC1c1cccc(/C=C\I)c1)N2 (stereo not given) | Putamen | yes (1) |

====

// reported Drug uptake for each item listed
- Test system: Caudate
- assayProtocol: Drug uptake in anesthetized cynomolgus monkey brain caudate after 75 mins postinjection
- Type: ADME, organism-based, Macaca fascicularis, Caudate nucleus
- protocolConditions: in vivo, 1.25 h
observable: Drug uptake

| molecule | measuredOn | observable | val |
| --- | --- | --- | --- |
| O=C(OCC[18F])C1C2CCC(CC1c1ccc(/C=C\I)cc1)N2 (stereo not given) | Caudate | Drug uptake | 2.98 |
| O=C(OCC[18F])C1C2CCC(CC1c1cccc(/C=C\I)c1)N2 (stereo not given) | Caudate | Drug uptake | 3.62 |
| O=C(OCC[18F])C1C2CCC(CC1c1cccc(/C=C\Br)c1)N2 (stereo not given) | Caudate | Drug uptake | 3.94 |
| O=C(OCCC[18F])C1C2CCC(CC1c1cccc(/C=C\Br)c1)N2 (stereo not given) | Caudate | Drug uptake | 5.17 |
| O=C(OCCC[18F])C1C2CCC(CC1c1cccc(/C=C\I)c1)N2 (stereo not given) | Caudate | Drug uptake | 4.05 |

====

// reported Drug uptake for each item listed
- Tested on: Putamen
- assayProtocol: Drug uptake in anesthetized cynomolgus monkey brain putamen after 2.5 mins postinjection
- Format: ADME, organism-based, Macaca fascicularis
- protocolConditions: in vivo
observable: Drug uptake

| molecule | measuredOn | val |
| --- | --- | --- |
| O=C(OCC[18F])C1C2CCC(CC1c1cccc(/C=C\Br)c1)N2 (stereo not given) | Putamen | 0.4 |
| O=C(OCC[18F])C1C2CCC(CC1c1ccc(/C=C\I)cc1)N2 (stereo not given) | Putamen | 0.45 |
| O=C(OCCC[18F])C1C2CCC(CC1c1cccc(/C=C\I)c1)N2 (stereo not given) | Putamen | 0.84 |
| O=C(OCC[18F])C1C2CCC(CC1c1cccc(/C=C\I)c1)N2 (stereo not given) | Putamen | 0.44 |
| O=C(OCCC[18F])C1C2CCC(CC1c1cccc(/C=C\Br)c1)N2 (stereo not given) | Putamen | 1.34 |

Recorded values, source ChEMBL document CHEMBL1151757.
